- Test system: arecoline-induced increase in blood pressure
- procedure-summary: Investigation for central activity: arecoline test, CNS-penetration in vivo
- Set-up: species or system rat
- test-context: Rattus norvegicus, iv, read-out: ED50, reduction in the arecoline-induced increase in blood pressure
Rule: measured ED50 below 5 mg/kg gets fulfilled; anything equal to or greater than 5 mg/kg gets not fulfilled.

Reference set, count: 5
* CCN(CCCC1CCN(CC(=O)N2c3ccccc3C(=O)Nc3cccnc32)CC1)C(=O)C(C)(C)CC [Substance A] | fulfilled
* CCCC(C)(C)C(=O)N(CC)CCCC1CCN(CC(=O)N2c3ccccc3C(=O)Nc3cccnc32)CC1 [Substance B] | fulfilled
* CCN(CCCC1CCN(CC(=O)N2c3ccccc3C(=O)Nc3cccnc32)CC1)C(=O)C(C)(C)C [Substance F] | not fulfilled
* CCCN(CCC)CC1CCCCN1CCNC(=O)N1c2ccccc2C(=O)Nc2cccnc21 (centres unmarked) [L] | not fulfilled
* CCCC(C)(C)C(=O)N(CC)CCCCC1CCN(CC(=O)N2c3ccccc3C(=O)Nc3cccnc32)CC1 [Substance C] | fulfilled

Query: Consider CCN(CCCC1CCN(CC(=O)N2c3ccc(C)cc3C(=O)Nc3cccnc32)CC1)C(=O)C(C)(C)C [Substance E] . Does its ED50 lie strictly below 5 mg/kg?
Response: fulfilled

---

These molecules were tested on M3 (Submandibular gland) (Rattus norvegicus, UniProt P08483); pKi is the recorded read-out.
Sequence (P08483 whole entry): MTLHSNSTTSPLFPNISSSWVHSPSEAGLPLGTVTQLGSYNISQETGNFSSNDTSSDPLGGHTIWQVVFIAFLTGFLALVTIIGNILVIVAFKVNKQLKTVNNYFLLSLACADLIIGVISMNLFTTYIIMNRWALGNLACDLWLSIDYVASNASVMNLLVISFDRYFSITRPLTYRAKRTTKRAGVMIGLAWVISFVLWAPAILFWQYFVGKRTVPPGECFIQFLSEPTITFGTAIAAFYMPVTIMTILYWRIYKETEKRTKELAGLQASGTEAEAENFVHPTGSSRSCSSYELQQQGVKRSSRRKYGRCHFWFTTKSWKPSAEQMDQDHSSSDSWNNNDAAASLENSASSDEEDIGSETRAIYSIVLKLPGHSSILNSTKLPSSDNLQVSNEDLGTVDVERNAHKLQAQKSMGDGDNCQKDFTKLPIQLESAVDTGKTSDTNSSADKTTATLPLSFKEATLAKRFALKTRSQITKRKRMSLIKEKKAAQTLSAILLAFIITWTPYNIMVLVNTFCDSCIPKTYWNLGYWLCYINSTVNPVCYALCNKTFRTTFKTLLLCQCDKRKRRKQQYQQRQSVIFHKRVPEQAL
Answer as the number alone; pKi is minus log10 of concentration in mol/L.

Before answering, review these 5 worked examples.
- CN(CCC1CCCCCN1C)CC(=O)N1c2ccccc2C(=O)Nc2cccnc21 (stereo not drawn): 7.60
- Cc1scc2c1N(C(=O)CCC#CCN1CCCCCC1)c1ccccc1NC2=O: 7.52
- O=C1Nc2cccnc2N(C(=O)CCCCCN2CCCCC2)c2ccccc21 [Substance O, reference compound]: 7.40
- CCN(CC)CC1COCCN1CCCC(=O)N1c2ccccc2C(=O)Nc2cccnc21 (stereo not drawn): 7.30
- O=C1Nc2cccnc2N(C(=O)N2CCCC(CCCN3CCCCC3)C2)c2ccccc21 (stereo not drawn): 7.89

Read the next record carefully.
Query: Item CCN(CC)CC1CCCCN1CC(=O)N1c2ccccc2C(=O)Nc2cccnc21 (stereo not drawn) has what recorded pKi?
Response: 5.70
